Each record here notes measured IC50.
# study-system: various mutants of kinase EGFR (BaF3 cell lines stably transfected with kinase) (Homo sapiens, UniProt P00533, T790M/C797S, form not given)
# Construct: other: BaF3 cells stably transfected with EGFR Δ19Del/T790M/C797S; MTS, 48; other: BaF3 cell line stably transfected with EGFR Δ19Del/T790M/C7
# Sequence (P00533 with tags, fused parts or gaps DEL746-750/T790M/C797S, form open): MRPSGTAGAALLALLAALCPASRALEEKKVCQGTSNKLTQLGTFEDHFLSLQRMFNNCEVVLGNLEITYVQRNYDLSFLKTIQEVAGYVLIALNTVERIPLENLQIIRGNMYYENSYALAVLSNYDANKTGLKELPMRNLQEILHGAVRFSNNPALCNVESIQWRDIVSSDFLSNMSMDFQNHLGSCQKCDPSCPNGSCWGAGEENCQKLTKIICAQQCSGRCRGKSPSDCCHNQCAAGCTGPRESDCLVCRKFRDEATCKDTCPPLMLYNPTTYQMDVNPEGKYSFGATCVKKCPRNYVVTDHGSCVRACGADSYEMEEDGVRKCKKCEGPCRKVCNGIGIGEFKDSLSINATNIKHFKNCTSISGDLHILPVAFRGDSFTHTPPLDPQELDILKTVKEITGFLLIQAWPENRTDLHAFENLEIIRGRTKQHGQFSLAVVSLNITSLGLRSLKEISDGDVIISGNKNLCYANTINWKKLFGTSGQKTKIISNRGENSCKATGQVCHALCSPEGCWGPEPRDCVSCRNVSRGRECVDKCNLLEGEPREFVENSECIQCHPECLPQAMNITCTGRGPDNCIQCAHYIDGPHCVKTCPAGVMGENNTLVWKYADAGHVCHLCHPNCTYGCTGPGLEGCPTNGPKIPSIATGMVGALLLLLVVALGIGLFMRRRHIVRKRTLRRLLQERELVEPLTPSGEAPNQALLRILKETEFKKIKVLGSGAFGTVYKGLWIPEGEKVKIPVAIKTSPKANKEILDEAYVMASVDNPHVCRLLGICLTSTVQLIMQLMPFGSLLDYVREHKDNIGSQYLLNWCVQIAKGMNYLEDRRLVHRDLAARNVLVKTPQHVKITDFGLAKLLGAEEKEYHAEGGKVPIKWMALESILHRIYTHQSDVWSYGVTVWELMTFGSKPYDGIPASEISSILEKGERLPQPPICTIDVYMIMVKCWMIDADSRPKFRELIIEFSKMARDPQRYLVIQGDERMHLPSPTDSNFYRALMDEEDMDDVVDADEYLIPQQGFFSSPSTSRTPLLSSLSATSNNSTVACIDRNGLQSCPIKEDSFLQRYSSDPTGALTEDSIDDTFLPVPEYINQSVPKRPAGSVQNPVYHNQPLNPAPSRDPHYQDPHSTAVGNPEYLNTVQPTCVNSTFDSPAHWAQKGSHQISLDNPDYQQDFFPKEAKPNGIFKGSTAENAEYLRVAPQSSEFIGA
# protocol-description: Growth inhibitory activity of compounds on BaF3 cell lines stably transfected with kinase (MTS, 48 h)
# Type: cell-based
# particulars: BaF3 cells stably transfected with EGFR Δ19Del/T790M/C797S, read-out: IC50, growth inhibition, Δ19Del/T790M/C797S

* C=Cc1cc(Nc2ncc(Cl)c(Nc3ccc4nccnc4c3N(C)S(=O)(=O)CC)n2)c(OC(F)(F)F)cc1N1CCC(N2CCN(C)CC2)CC1 | ≤ 50 nM

The recorded IC50 for CCc1cc(Nc2ncc(C)c(Nc3ccc4nccnc4c3N(C)S(C)(=O)=O)n2)c(OC)nc1N1CCC(N2CCN(C)CC2)CC1 is ≤ 50 nM

The recorded IC50 for entry CCc1cc(Nc2ncc(C#N)c(Nc3ccc4nccnc4c3N(C)S(C)(=O)=O)n2)c(OC)cc1N1CCC(N2CCN(C)CC2)CC1 equals 50 to 500 nM

----------
Items are presented alongside their recorded pIC50.
# study-system: various mutants of kinase EGFR (BaF3 cell lines stably transfected with kinase) (Homo sapiens)
# Construct: other: BaF3 cells stably transfected with EGFR Δ19Del; MTS, 48 h; other: BaF3 cell line stably transfected with EGFR Δ19Del
# protocol-description: Growth inhibitory activity of compounds on BaF3 cell lines stably transfected with kinase (MTS, 48 h)
# Assay type: cell-based
# particulars: BaF3 cells stably transfected with EGFR Δ19Del, read-out: IC50, growth inhibition, Δ19Del
pIC50: −log10 of the molar value.

So for CCS(=O)(=O)N(C)c1c(Nc2nc(Nc3ccc(N4CCC(N5CCN(C)CC5)CC4)cc3OC)ncc2Br)ccc2nccnc12 , the logged pIC50 turned out to be 6.30 to 7.30

----------
# study-system: various mutants of kinase EGFR (BaF3 cell lines stably transfected with kinase) (Homo sapiens, UniProt P00533, L858R)
# Construct: expressed in transfected cells; host or cells: BaF3
# Sequence (P00533 25-1210 L858R): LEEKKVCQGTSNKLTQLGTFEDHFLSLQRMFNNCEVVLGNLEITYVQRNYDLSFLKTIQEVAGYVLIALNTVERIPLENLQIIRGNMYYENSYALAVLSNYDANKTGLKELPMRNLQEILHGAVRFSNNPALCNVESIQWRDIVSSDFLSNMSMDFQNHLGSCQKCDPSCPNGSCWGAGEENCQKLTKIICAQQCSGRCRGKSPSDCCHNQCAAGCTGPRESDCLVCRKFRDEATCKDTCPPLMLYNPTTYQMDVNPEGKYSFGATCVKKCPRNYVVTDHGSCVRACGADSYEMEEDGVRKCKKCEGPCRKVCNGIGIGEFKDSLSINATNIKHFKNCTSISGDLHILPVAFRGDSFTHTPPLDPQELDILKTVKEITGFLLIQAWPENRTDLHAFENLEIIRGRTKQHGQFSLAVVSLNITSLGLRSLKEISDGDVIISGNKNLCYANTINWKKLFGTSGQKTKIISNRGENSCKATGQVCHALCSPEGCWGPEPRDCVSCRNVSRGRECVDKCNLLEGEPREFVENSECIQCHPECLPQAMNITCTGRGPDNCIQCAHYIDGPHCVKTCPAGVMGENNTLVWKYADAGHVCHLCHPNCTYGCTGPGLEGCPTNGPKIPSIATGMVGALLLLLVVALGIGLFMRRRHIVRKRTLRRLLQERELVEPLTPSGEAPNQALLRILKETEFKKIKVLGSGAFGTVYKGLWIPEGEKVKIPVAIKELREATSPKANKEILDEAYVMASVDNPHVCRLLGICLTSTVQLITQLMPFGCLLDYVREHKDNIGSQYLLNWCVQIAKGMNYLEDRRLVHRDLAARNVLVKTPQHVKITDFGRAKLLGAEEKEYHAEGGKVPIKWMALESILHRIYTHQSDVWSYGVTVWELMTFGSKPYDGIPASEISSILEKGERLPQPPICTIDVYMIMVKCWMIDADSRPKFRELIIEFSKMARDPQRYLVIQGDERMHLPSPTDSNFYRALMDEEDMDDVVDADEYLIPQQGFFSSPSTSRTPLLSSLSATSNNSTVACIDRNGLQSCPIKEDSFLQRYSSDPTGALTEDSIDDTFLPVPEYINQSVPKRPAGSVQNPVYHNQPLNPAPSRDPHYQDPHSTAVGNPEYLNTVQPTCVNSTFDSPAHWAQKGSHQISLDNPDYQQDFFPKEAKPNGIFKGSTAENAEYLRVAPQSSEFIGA
# protocol-description: Growth inhibitory activity of compounds on BaF3 cell lines stably transfected with kinase (MTS, 48 h)
# Assay type: cell-based
# particulars: BaF3 cells stably transfected with EGFR L858R, read-out: IC50, growth inhibition, L858R
This section presents compounds with their documented IC50 values.

For reference, reported IC50 for CN1CCc2cc(OC(F)(F)F)c(Nc3ncc(Br)c(Nc4ccc5nccnc5c4N(C)S(C)(=O)=O)n3)cc2C1 stands at 500 to 2500 nM

response.value for CN(c1c(Nc2nc(Nc3cccc(N4CCC(O)CC4)c3)ncc2Br)ccc2nccnc12)S(C)(=O)=O (field: IC50) = 500 to 2500 nM

Noted for CCc1cc(Nc2ncc(Br)c(Nc3ccc4nccnc4c3N(CC)S(C)(=O)=O)n2)c(OC)nc1N1CCC(N2CCN(C)CC2)CC1 : its IC50 reads 50 to 500 nM

IC50 in this record for Cc1ccc(Nc2ncc(Br)c(Nc3ccc4nccnc4c3N(C)S(C)(=O)=O)n2)cn1 : 50 to 500 nM

Value of IC50 reported for the compound COc1cc(N2CCC(N3CCN(C)CC3)CC2)c(C)cc1Nc1ncc(Br)c(Nc2ccc3nccnc3c2N(C)S(C)(=O)=O)n1 is ≤ 50 nM

// COc1cc(N2CCN(C)CC2)c(C)cc1Nc1ncc([N+](=O)[O-])c(Nc2ccc3nccnc3c2N(C)S(C)(=O)=O)n1 : IC50 value = 50 to 500 nM

Note to self: IC50 recorded for CN1CCN(Cc2cc(Nc3ncc(Br)c(Nc4ccc5nccnc5c4N(C)S(C)(=O)=O)n3)cc(C(F)(F)F)c2)CC1 was 50 to 500 nM

----------
# study-system: various mutants of kinase EGFR (BaF3 cell lines stably transfected with kinase) (Homo sapiens, UniProt P00533, T790M, form not given)
# Construct: other: BaF3 cells stably transfected with EGFR Δ19Del/T790M; MTS, 48 h; other: BaF3 cell line stably transfected with EGFR Δ19Del/T790M; MTS, 48
# Sequence (P00533 with tags, fused parts or gaps DEL746-750/T790M, form open): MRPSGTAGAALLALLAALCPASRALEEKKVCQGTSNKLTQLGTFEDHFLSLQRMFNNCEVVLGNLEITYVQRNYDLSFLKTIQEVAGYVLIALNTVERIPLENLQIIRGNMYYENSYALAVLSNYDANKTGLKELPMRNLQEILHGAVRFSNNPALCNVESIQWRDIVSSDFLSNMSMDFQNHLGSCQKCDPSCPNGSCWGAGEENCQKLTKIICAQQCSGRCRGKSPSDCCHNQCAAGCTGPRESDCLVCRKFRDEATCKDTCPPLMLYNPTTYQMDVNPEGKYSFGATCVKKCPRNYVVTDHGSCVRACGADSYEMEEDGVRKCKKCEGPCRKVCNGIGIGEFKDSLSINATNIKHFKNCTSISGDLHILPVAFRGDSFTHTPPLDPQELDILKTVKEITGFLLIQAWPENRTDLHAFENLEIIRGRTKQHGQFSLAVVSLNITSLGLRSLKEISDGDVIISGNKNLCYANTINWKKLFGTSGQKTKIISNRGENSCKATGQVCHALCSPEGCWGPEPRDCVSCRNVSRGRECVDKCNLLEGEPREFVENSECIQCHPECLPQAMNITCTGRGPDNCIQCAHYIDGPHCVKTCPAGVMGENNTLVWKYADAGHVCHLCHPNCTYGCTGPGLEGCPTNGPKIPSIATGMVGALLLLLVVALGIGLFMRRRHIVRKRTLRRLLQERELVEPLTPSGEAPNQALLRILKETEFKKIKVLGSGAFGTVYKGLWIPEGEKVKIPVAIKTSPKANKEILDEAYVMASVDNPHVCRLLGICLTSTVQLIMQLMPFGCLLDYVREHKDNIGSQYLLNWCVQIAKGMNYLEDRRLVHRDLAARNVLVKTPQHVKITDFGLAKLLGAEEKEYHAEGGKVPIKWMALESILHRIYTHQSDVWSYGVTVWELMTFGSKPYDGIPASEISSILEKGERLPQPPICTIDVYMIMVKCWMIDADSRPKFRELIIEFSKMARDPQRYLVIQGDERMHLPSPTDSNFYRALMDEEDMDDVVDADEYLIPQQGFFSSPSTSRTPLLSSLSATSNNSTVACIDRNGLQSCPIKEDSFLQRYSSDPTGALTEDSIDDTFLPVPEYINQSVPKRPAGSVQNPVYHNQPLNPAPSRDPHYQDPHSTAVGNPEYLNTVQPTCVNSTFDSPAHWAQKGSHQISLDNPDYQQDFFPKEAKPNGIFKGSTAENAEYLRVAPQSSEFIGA
# protocol-description: Growth inhibitory activity of compounds on BaF3 cell lines stably transfected with kinase (MTS, 48 h)
# Format: cell-based
# particulars: BaF3 cells stably transfected with EGFR Δ19Del/T790M, read-out: IC50, growth inhibition, Δ19Del/T790M
Entries and their IC50 values follow.

Observe how each entry below is paired with its result.
- COc1cc(N2CCC(N3CCN(C)CC3)CC2)ccc1Nc1ncc(Br)c(Nc2ccc3nccnc3c2N(C)S(C)(=O)=O)n1 [Compound I-1]: ≤ 50 nM
- COc1nc(N2CCC(N3CCN(C)CC3)CC2)ccc1Nc1ncc(Br)c(Nc2ccc3nccnc3c2N(C)S(=O)(=O)C2CC2)n1 [Compound I-216]: 500 to 2500 nM

GET /value?item= COc1ccc(NC(=O)CN(C)C)cc1Nc1ncc(Br)c(Nc2ccc3nccnc3c2N(C)S(C)(=O)=O)n1 [Compound I-85] &field=IC50 returns 50 to 500 nM

Value of measured IC50 for the entry COc1cc(N2CCC(N3CCN(C)CC3)CC2)ccc1Nc1ncc(F)c(Nc2ccc3nccnc3c2N(C)S(=O)(=O)C2CC2)n1 [Compound I-247] : 500 to 2500 nM

----------
Measured pIC50, listed per entry.
# study-system: various mutants of kinase EGFR (BaF3 cell lines stably transfected with kinase) (Homo sapiens, UniProt P00533, L858R/T790M)
# Construct: expressed in transfected cells; host or cells: BaF3
# Sequence (P00533 25-1210 T790M/L858R): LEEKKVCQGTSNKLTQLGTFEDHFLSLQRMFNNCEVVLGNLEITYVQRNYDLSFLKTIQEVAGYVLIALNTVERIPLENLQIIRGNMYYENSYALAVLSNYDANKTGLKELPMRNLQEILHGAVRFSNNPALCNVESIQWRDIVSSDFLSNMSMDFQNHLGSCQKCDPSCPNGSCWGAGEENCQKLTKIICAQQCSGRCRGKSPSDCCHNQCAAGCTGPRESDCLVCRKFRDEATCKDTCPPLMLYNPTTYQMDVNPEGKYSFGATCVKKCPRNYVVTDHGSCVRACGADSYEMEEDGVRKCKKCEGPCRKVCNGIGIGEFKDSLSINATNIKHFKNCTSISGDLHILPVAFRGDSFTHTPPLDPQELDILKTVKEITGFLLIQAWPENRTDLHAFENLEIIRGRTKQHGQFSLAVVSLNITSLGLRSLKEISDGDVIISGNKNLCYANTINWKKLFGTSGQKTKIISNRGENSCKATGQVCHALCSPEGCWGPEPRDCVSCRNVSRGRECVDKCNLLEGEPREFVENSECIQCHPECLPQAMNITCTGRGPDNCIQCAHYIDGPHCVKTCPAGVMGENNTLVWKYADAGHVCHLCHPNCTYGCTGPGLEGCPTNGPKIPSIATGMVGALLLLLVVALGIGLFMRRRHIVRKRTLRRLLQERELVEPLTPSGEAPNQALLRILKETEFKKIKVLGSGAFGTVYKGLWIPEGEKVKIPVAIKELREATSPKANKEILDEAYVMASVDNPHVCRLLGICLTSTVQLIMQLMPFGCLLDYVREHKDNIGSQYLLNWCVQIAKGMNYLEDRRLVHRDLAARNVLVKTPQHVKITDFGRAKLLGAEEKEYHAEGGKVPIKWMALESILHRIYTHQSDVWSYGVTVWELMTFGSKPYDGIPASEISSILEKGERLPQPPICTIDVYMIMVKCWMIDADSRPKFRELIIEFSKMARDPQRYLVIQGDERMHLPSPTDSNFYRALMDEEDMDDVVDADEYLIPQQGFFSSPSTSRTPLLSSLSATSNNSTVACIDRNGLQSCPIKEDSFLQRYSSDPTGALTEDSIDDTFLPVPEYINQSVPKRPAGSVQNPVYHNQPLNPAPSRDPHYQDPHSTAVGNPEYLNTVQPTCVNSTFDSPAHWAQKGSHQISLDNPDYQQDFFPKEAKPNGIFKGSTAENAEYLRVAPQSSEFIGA
# protocol-description: Growth inhibitory activity of compounds on BaF3 cell lines stably transfected with kinase (MTS, 48 h)
# Format: cell-based
# particulars: BaF3 cell line stably transfected with EGFR L858R/T790M, read-out: L858R/ T790M growth inhibitory activity IC50
# Method: The activity of compounds against various mutants of kinase EGFR was evaluated by their effect of inhibiting growth of BaF3 cell lines stably transfected with kinase. The specific test method was given as follows: […] 3) Compound test: cells were incubated into a 96-well culture plate, the volume of cytosol was 90 µL, and then 10 µL of the compound at each gradient concentration was added. […] OD values at 490 nm were measured by a microplate reader (VARIOSKAN FLASH, Thermo). […]
pIC50: −log10 of the molar value.

Entry CCOc1cnc(Nc2cc(CC)c(N3CCC(N4CCN(C)CC4)CC3)nc2OC)nc1Nc1ccc2nccnc2c1N(C)S(C)(=O)=O [Compound I-338] ; pIC50 = 6.30 to 7.30

The molecule identified as CCc1cc(Nc2ncc(C(C)C)c(Nc3ccc4nccnc4c3N(C)S(C)(=O)=O)n2)c(OC)cc1N1CCC(N2CCN(C)CC2)CC1 [Compound I-327] registered its pIC50 at ≥ 7.30

----------
# study-system: various mutants of kinase EGFR (BaF3 cell lines stably transfected with kinase) (Homo sapiens, UniProt P00533, L858R)
# Construct: expressed in transfected cells; host or cells: BaF3
# protocol-description: Growth inhibitory activity of compounds on BaF3 cell lines stably transfected with kinase (MTS, 48 h)
# Type: cell-based
# particulars: BaF3 cell line stably transfected with EGFR L858R, read-out: L858R growth inhibitory activity IC50
quantity: IC50

- COc1cc(N2CCC(N3CCN(C)CC3)CC2)c(CC2CC2)cc1Nc1ncc(Br)c(Nc2ccc3nccnc3c2N(C2CC2)S(C)(=O)=O)n1: 50 to 500 nM
- COc1cc(N2CCC(N3CCN(C)CC3)CC2)ccc1Nc1ncc(C(C)C)c(Nc2ccc3nccnc3c2N(C)S(C)(=O)=O)n1: 50 to 500 nM

Given item CN1CCN(C2CCN(c3c(F)cc(Nc4ncc(Br)c(Nc5ccc6nccnc6c5N(C)S(C)(=O)=O)n4)cc3F)CC2)CC1 , the value recorded as its IC50 is ≤ 50 nM

response.value for C=Cc1cc(Nc2nc(Nc3ccc4nccnc4c3N(C)S(C)(=O)=O)c3cc[nH]c3n2)c(OC(F)(F)F)cc1N1CCC(N2CCN(C)CC2)CC1 (field: IC50) = 50 to 500 nM

# IC50 of CCc1cc(Nc2nc(Nc3ccc4nccnc4c3N(C)S(C)(=O)=O)c3ccsc3n2)c(OC(F)(F)F)cc1N1CCC(N2CCN(C)CC2)CC1 = 500 to 2500 nM

Entry COc1cc(N2CCC(N3CCN(C)CC3)CC2)c(CC2CC2)cc1Nc1nc(Nc2ccc3nccnc3c2N(C)S(C)(=O)=O)c2occc2n1 ; IC50 = 50 to 500 nM

----------
# study-system: various mutants of kinase EGFR (BaF3 cell lines stably transfected with kinase) (Homo sapiens, UniProt P00533, L858R/T790M)
# Construct: expressed in transfected cells; host or cells: BaF3
# protocol-description: Growth inhibitory activity of compounds on BaF3 cell lines stably transfected with kinase (MTS, 48 h)
# Assay type: cell-based
# particulars: BaF3 cell line stably transfected with EGFR L858R/T790M, read-out: L858R/ T790M growth inhibitory activity IC50
# Procedure: The activity of compounds against various mutants of kinase EGFR was evaluated by their effect of inhibiting growth of BaF3 cell lines stably transfected with kinase. The specific test method was given as follows: […] 3) Compound test: cells were incubated into a 96-well culture plate, the volume of cytosol was 90 µL, and then 10 µL of the compound at each gradient concentration was added. […] OD values at 490 nm were measured by a microplate reader (VARIOSKAN FLASH, Thermo). […]
pIC50: −log10 of the molar value.
Each entry below lists one item and its recorded pIC50 value.

Consider the reported pIC50 for these compounds:
* CCc1cc(Nc2ncc(C)c(Nc3ccc4nccnc4c3N(C)S(C)(=O)=O)n2)c(OC)cc1N1CCN(C)CC1 [Compound I-315] | ≥ 7.30
* COc1cc(N2CCC(N3CCN(C)CC3)CC2)c(C(C)C)cc1Nc1ncc(C#N)c(Nc2ccc3nccnc3c2N(C)S(C)(=O)=O)n1 [Compound I-345] | 6.30 to 7.30
* COc1cc(N2CCC(N(C)C)C2)c(C)cc1Nc1nc(Nc2ccc3nccnc3c2N(C)S(C)(=O)=O)c2sccc2n1 (stereo not shown) [II-1-14] | 6.30 to 7.30
* CN1CCN(C2CCN(c3c(F)cc(Nc4ncc(Br)c(Nc5ccc6nccnc6c5NS(C)(=O)=O)n4)cc3F)CC2)CC1 [Compound I-360] | ≥ 7.30
* CCc1cnc(Nc2cc(F)c(N3CCC(N4CCN(C)CC4)CC3)c(F)c2)nc1Nc1ccc2nccnc2c1N(C)S(C)(=O)=O [Compound I-349] | ≥ 7.30
* COc1cc(N2CCN(C)CC2)c(C)cc1Nc1nc(Nc2ccc3nccnc3c2N(C)S(C)(=O)=O)c2sccc2n1 [II-1-12] | 6.30 to 7.30
* CCc1cnc(Nc2cc(N3CCC(O)CC3)ccc2OC)nc1Nc1ccc2nccnc2c1N(C)S(C)(=O)=O [Compound I-363] | ≥ 7.30
* COc1ccc(N2CCC(O)CC2)cc1Nc1ncc(C2CC2)c(Nc2ccc3nccnc3c2N(C)S(C)(=O)=O)n1 [Compound I-365] | ≥ 7.30
* C=Cc1cc(Nc2nc(Nc3ccc4nccnc4c3N(C)S(C)(=O)=O)c3occc3n2)c(OC(F)(F)F)cc1N1CCC(N2CCN(C)CC2)CC1 [II-1-42] | 6.30 to 7.30
* COc1cc(N2CCC(N3CCN(C)CC3)CC2)c(C)cc1Nc1nc(Nc2ccc3nccnc3c2N(C)S(C)(=O)=O)c2sccc2n1 [II-1-2] | 6.30 to 7.30

For COc1cc(N2CCC(N3CCN(C)CC3)CC2)c(C)cc1Nc1ncc(C(C)C)c(Nc2ccc3nccnc3c2N(C)S(C)(=O)=O)n1 [Compound I-326] the compound record lists pIC50 as 6.30 to 7.30

Per the records, this compound ( CCc1cc(Nc2ncc(CC)c(Nc3ccc4nccnc4c3N(C)S(C)(=O)=O)n2)c(OC)cc1N1CCC(N(C)C)CC1 [Compound I-323] ) has pIC50 equal to ≥ 7.30

Measured pIC50 of CCc1cc(Nc2ncc(Br)c(Nc3ccc4nccnc4c3NS(C)(=O)=O)n2)c(OC)cc1N1CCN(C)CC1 [Compound I-411] : ≥ 7.30
